target: LMP7 (Homo sapiens, UniProt P20618+P28062); construct: endogenous in cells; host or cells: MOLT-4; assay: ProCISE proteasome subunit assay, LMP7; assay type: biochemical; conditions: MOLT4 lysate Hu 1 h
reported.metric: IC50 (nM)

Use the examples below as a reference point.
1) COc1ccc(C[C@H](NC(=O)[C@@H](C)NC(=O)C[C@@H](C)O)C(=O)N[C@@H](CC2CCCC2)C(=O)[C@@]2(C)CO2)cc1 : 621
2) COc1ccc(C[C@H](NC(=O)[C@@H](C)NC(=O)CC(C)(C)O)C(=O)N[C@@H](CC2CCCC2)C(=O)[C@@]2(C)CO2)cc1 : 75.7
3) COc1ccc(C[C@H](NC(=O)[C@@](C)(O)C(F)(F)F)C(=O)N[C@@H](Cc2ccccc2)C(=O)[C@@]2(C)CO2)cc1 : 3460

a: COc1ccc(C[C@H](NC(=O)[C@@H](C)NC(=O)c2cccnc2)C(=O)N[C@@H](CC2CCCC2)C(=O)[C@@]2(C)CO2)cc1
b: COc1ccc(C[C@H](NC(=O)[C@@H](CN2CCOCC2)NC(=O)c2cc(C)no2)C(=O)N[C@@H](CC2CCCC2)C(=O)[C@@]2(C)CO2)cc1
Looking at a and b , which one comes out lower in IC50 terms? Field: selected label. Fill in the label of the entry you choose. b
(b: 220 nM, a: 452 nM)

----------
target: c20S (constitutive 20S proteasome) (Homo sapiens, UniProt P20618+P28074); test: 20S proteasome assay, chymotrypsin-like activity (LLVY), c20S; format: biochemical; settings: LLVY c20S Hu 1 h CONT: IC50 (nM), succinyl-Leu-Leu-Val-Tyr-AMC
reported.metric: IC50 (nM)

1. COc1ccc(C[C@H](NC(=O)[C@@H](C)NC(=O)c2oncc2C)C(=O)N[C@@H](CC2CCCC2)C(=O)[C@@]2(C)CO2)cc1 : 6030
2. COc1ccc(C[C@H](NC(=O)[C@@H](NC(=O)OCc2ccccc2)C2COC2)C(=O)N[C@@H](Cc2ccccc2)C(=O)[C@@]2(C)CO2)cc1 : 15.3
3. COc1ccc(C[C@H](NC(=O)[C@H](C)NC(=O)C(C)(F)F)C(=O)N[C@@H](Cc2ccccc2)C(=O)[C@@]2(C)CO2)cc1 : 29
4. COc1ccc(C[C@H](NC(=O)[C@@H](C)NC(=O)C[C@@H](C)O)C(=O)N[C@@H](CC2CCCC2)C(=O)[C@@]2(C)CO2)cc1 : 9450
5. COCOCCC(=O)N[C@@H](C)C(=O)N[C@@H](Cc1ccc(OC)cc1)C(=O)N[C@@H](Cc1ccccc1)C(=O)[C@@]1(C)CO1 : 117

A: CCOCC(=O)N[C@H](C)C(=O)N[C@@H](Cc1ccc(OC)cc1)C(=O)N[C@@H](CC1CCCC1)C(=O)[C@@]1(C)CO1
B: COc1ccc(C[C@H](NC(=O)[C@@H](C)NC(=O)CC(C)(C)O)C(=O)N[C@@H](CC2=CCCC2)C(=O)[C@@]2(C)CO2)cc1O
C: C[C@@H](NC(=O)CC(C)(C)O)C(=O)N[C@@H](Cc1ccc(S(C)(=O)=O)cc1)C(=O)N[C@@H](CC1CCCC1)C(=O)[C@@]1(C)CO1
D: COc1ccc(C[C@H](NC(=O)[C@@H](C)NC(=O)c2ccncc2)C(=O)N[C@@H](CC2CCCC2)C(=O)[C@@]2(C)CO2)cc1
E: COc1ccc(C[C@H](NC(=O)[C@H]2CCC(=O)N2)C(=O)N[C@@H](Cc2ccccc2)C(=O)[C@@]2(C)CO2)cc1
Rank by IC50 (largest to smallest). List labels; respect the requested ordering. A, E, D, C, B
(A: 99000 nM, E: 14500 nM, D: 10100 nM, C: 521 nM, B: 201 nM)

----------
target: LMP7 (Homo sapiens, UniProt P20618+P28062); construct: endogenous in cells; host or cells: MOLT-4; assay: ProCISE proteasome subunit assay, LMP7; assay type: biochemical; conditions: MOLT4 lysate Hu 1 h
reported.metric: IC50 (nM)

a: COc1ccc(C[C@H](NC(=O)[C@@H](C)NC(=O)c2cc(C)no2)C(=O)N[C@@H](CC2CCCC2)C(=O)[C@@]2(C)CO2)cc1
b: COc1ccc(C[C@H](NC(=O)[C@@H](NC(=O)OCc2ccccc2)C2COC2)C(=O)N[C@@H](Cc2ccccc2)C(=O)[C@@]2(C)CO2)cc1
Between a and b , whose recorded IC50 is greater? Field: selected label. Fill in the label of the entry you choose. a

----------
test: Solubility pH 7; type: physicochemical; conditions: pH 7, aqueous buffer
reported.metric: solubility (mg/mL)

1. COc1ccc(C[C@H](NC(=O)[C@H](C)NC(=O)Cc2cnc(N)s2)C(=O)N[C@@H](CC2=CCCC2)C(=O)[C@@]2(C)CO2)cc1 : 0.0436

a: COc1ccc(C[C@H](NC(=O)[C@@H](C)NC(=O)c2ccc3[nH]cnc3c2)C(=O)N[C@@H](CC2CCCC2)C(=O)[C@@]2(C)CO2)cc1
b: COCCC(=O)N[C@@H](C)C(=O)N[C@@H](Cc1ccc(OC)cc1)C(=O)N[C@@H](CC1CCCC1)C(=O)[C@@]1(C)CO1
c: COc1ccc(C[C@H](NC(=O)[C@]2(C)CCC(=O)N2)C(=O)N[C@@H](Cc2ccccc2)C(=O)[C@@]2(C)CO2)cc1
Sort (3 compounds) by solubility: min first. List labels; respect the requested ordering. a, b, c

----------
assay: Solubility pH 7; format: physicochemical; details: pH 7, aqueous buffer
reported.metric: solubility (µg/mL)

1. COc1ccc(C[C@H](NC(=O)[C@@H](C)NC(=O)[C@@H]2CCc3[nH]ncc3C2)C(=O)N[C@@H](CC2CCCC2)C(=O)[C@@]2(C)CO2)cc1 : 144
2. CC[C@@](C)(O)CC(=O)N[C@H](C)C(=O)N[C@@H](Cc1ccc(OC)cc1)C(=O)N[C@@H](CC1CCCC1)C(=O)[C@@]1(C)CO1 : 160

a: COc1ccc(C[C@H](NC(=O)[C@@H](C)NC(=O)c2cccnc2)C(=O)N[C@@H](CC2CCCC2)C(=O)[C@@]2(C)CO2)cc1
b: COc1ccc(C[C@H](NC(=O)[C@@H](NC(=O)OCc2ccccc2)C2COC2)C(=O)N[C@@H](Cc2ccccc2)C(=O)[C@@]2(C)CO2)cc1
Looking at a and b , which one comes out lower in solubility terms? Field: selected label. Fill in the label of the entry you choose. b

----------
molecular target: c20S (constitutive 20S proteasome) (Homo sapiens, UniProt P20618+P28074); assay: 20S proteasome assay, chymotrypsin-like activity (LLVY), c20S; type: biochemical; settings: LLVY c20S Hu 1 h CONT: IC50 (nM), succinyl-Leu-Leu-Val-Tyr-AMC
reported.metric: IC50 (nM)

Use the examples below as a reference point.
1) COc1ccc(C[C@H](NC(=O)[C@H](C)NC(=O)CC(C)(C)O)C(=O)N[C@@H](CC2CCCC2)C(=O)[C@@]2(C)CO2)cc1 : 2130
2) COc1ccc(C[C@H](NC(=O)[C@@H](CN2CCOCC2)NC(=O)c2cc(C)no2)C(=O)N[C@@H](CC2CCCC2)C(=O)[C@@]2(C)CO2)cc1 : 1290
3) COc1ccc(C[C@H](NC(=O)[C@@H](C)NC(=O)C2=C(C)c3ccccc3C2)C(=O)N[C@@H](Cc2ccccc2)C(=O)[C@@]2(C)CO2)cc1 : 411
4) COc1ccc(C[C@H](NC(=O)[C@@H](CO)NC(=O)c2cc(C)no2)C(=O)N[C@@H](CC2CCCC2)C(=O)[C@@]2(C)CO2)cc1 : 785
5) COc1ccc(C[C@H](NC(=O)CNC(=O)C2=C(C)c3ccccc3C2)C(=O)N[C@@H](CC2CCCC2)C(=O)[C@@]2(C)CO2)cc1 : 3950

a: COc1ccc(C[C@H](NC(=O)[C@@H](C)NC(=O)c2ccno2)C(=O)N[C@@H](CC2CCCC2)C(=O)[C@@]2(C)CO2)cc1
b: COc1ccc(C[C@H](NC(=O)[C@H](CN2CCOCC2)NC(=O)c2cc(C)no2)C(=O)N[C@@H](CC2CCCC2)C(=O)[C@@]2(C)CO2)cc1
Between a and b , whose recorded IC50 is greater? Field: selected label. Fill in the label of the entry you choose. a
